Measured values drawn from patent US20250163164A1 for this set.

Below, each entry is listed alongside its reported EC50.
systemName: T1, human interleukin 13 receptor subunit alpha 2 (IL-13RA2) (human, UniProt Q14627 27-380)
T1 construct: whole, on cells; also called IL-13Rα2; CD213A2
T1 sequence (looked up): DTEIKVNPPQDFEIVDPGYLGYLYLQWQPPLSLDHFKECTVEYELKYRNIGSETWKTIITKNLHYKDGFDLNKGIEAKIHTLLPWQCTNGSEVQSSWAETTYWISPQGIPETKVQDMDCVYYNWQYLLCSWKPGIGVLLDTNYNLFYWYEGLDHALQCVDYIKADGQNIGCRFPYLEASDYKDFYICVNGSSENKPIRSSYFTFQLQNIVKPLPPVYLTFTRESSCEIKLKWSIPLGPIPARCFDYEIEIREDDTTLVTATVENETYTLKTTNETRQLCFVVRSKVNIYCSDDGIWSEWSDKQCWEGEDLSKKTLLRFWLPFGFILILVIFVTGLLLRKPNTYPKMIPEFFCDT
testMethodNotes: FACS on A375 cells

binder | unitsLabel | EC50
72B4H4 H3L2 hIgG1 (antibody, V domains shown, humanized, hIgG1) VH: QVQLVQSGAEVVKPGASVKLSCKASGYTFTNYWMNWVKQAPGQGLEWIGRIDAYAGETHYNQKFKDRATLTVDKSTSTVYMELSSLRSEDTAVYYCARGYGDAYGMDHWGQGTLVTVSS VL: DIQMTQSPSSLSASVGDRVTITCRASESVDNYGISFMNWFQQKPGKAPKLLIYAASRQGSGDPSRFSGSGSGTDFTLTISSLQPEDFATYFCQQSKEVPWTFGQGTKVEIK | nM | 1.44
61H8C1 H4L4 hIgG1 (antibody, V domains shown, humanized, hIgG1) VH: QVQLVQSGAEVAKPGASVKLSCKASGYTFTSYWTQWIKQAPGQGLEGIGAIYPGDDDTSYNQKFKGKATLTADKSTSTAYMQLSSLRSEDTAVYYCARGATLLRPFPYWGQGTLVTVSS VL: DIVMTQSPSSLSTSVGDRVTITCKASQDVSTAVAWYQQKPGKSPKLLIYSASYRYTGVPDRFTGSGSGTDFTFTISSVQPEDFATYSCQQHYSIPPTFGGGTKLEIK | nM | 0.19
72B4H4 H1L2 hIgG1 (antibody, V domains shown, humanized, hIgG1) VH: QVQLVQSGAEVKKPGASVKVSCKASGYTFTNYWMNWVRQAPGQGLEWMGRIDAYAGETHYNQKFKDRVTMTRDTSTSTVYMELSSLRSEDTAVYYCARGYGDAYGMDHWGQGTLVTVSS VL: DIQMTQSPSSLSASVGDRVTITCRASESVDNYGISFMNWFQQKPGKAPKLLIYAASRQGSGDPSRFSGSGSGTDFTLTISSLQPEDFATYFCQQSKEVPWTFGQGTKVEIK | nM | 0.81
72B4H4 H1L3 hIgG1 (antibody, V domains shown, humanized, hIgG1) VH: QVQLVQSGAEVKKPGASVKVSCKASGYTFTNYWMNWVRQAPGQGLEWMGRIDAYAGETHYNQKFKDRVTMTRDTSTSTVYMELSSLRSEDTAVYYCARGYGDAYGMDHWGQGTLVTVSS VL: DIQLTQSPSSLSASVGDRVTITCRASESVDNYGISFMNWFQQKPGKAPKLLIYAASRQGSGDPARFSGSGSGTDFTLTISSLQPEDFATYFCQQSKEVPWTFGGGTKVEIK | nM | 1
72B4H4 H2L2 hIgG1 (antibody, V domains shown, humanized, hIgG1) VH: QVQLVQSGAEVVKPGASVKVSCKASGYTFTNYWMNWVRQAPGQGLEWIGRIDAYAGETHYNQKFKDRVTMTVDTSTSTVYMELSSLRSEDTAVYYCARGYGDAYGMDHWGQGTLVTVSS VL: DIQMTQSPSSLSASVGDRVTITCRASESVDNYGISFMNWFQQKPGKAPKLLIYAASRQGSGDPSRFSGSGSGTDFTLTISSLQPEDFATYFCQQSKEVPWTFGQGTKVEIK | nM | 1.48
